Molecular target: serotonin transporter (SERT) (Rattus norvegicus)
Construct: For SERT and NET assays, rat cerebral cortex was homogenized in cold SERT assay buffer; from tissue; host or cells: rat cerebral cortex
Test: Radioligand binding to serotonin transporter, [3H]paroxetine, rat cerebral cortex homogenate
Details: rat cerebral cortex membranes; [3H]paroxetine 200 pM; room temperature 120 min; Ki from IC50 by Cheng-Prusoff; read-out: SERT (Ki)
RESULT TYPE: Ki (µM)
Response body: numeric value in µM, unit text excluded.

• COC(=O)C1C(c2ccc(-c3ccco3)cc2)CC2CCC1N2C (stereo not shown) = 0.00113

Looking up COC(=O)C1C(c2ccc(-c3ccc([N+](=O)[O-])cc3)cc2)CC2CCC1N2C (stereo not shown) , I see its Ki listed as 0.0297

Entry COC(=O)C1C(c2ccc(-c3ccccn3)cc2)CC2CCC1N2C (stereo not shown) — recorded Ki = 0.161

The measured Ki associated with COC(=O)C1C(c2ccc(-c3cncnc3)cc2)CC2CCC1N2C (stereo not shown) reads 0.0331

---

Molecular target: norepinephrine transporter (NET) (Rattus norvegicus)
Construct: from tissue; host or cells: rat cerebral cortex
Sequence (Q63380 1-617): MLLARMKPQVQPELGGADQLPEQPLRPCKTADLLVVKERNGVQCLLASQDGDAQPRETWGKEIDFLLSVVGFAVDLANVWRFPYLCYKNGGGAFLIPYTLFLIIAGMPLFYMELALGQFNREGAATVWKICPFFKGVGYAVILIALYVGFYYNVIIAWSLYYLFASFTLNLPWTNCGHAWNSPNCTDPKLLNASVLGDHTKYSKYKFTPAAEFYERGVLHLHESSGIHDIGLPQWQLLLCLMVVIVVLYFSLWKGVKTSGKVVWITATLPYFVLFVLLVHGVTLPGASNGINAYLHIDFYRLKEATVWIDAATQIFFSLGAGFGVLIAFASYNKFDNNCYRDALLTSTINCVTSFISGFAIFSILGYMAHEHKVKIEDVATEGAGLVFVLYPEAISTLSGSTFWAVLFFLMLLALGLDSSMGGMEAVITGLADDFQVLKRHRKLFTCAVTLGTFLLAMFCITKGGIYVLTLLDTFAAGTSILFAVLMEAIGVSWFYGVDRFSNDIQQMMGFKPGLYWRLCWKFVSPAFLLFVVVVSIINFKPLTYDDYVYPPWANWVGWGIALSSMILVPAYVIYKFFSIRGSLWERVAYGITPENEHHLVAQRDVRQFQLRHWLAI
Experiment: Radioligand binding to norepinephrine transporter, [3H]nisoxetine, rat cerebral cortex homogenate
Settings: rat cerebral cortex membranes; [3H]nisoxetine 600 pM; on ice 180 min; Ki from IC50 by Cheng-Prusoff; read-out: NET (Ki)
RESULT TYPE: pKi
// returns pKi (minus log10 of molar concentration), number only

- COC(=O)C1C(c2ccc(-c3cccc([N+](=O)[O-])c3)cc2)CC2CCC1N2C (stereo not drawn): 6.02
- COC(=O)C1C2CCC(CC1c1ccc(-c3cccc(OC)c3)cc1)N2 (stereo not drawn): 6.53
- COC(=O)C1C(c2ccc(-c3cccc(N)c3)cc2)CC2CCC1N2C (stereo not drawn): 6.18

// pKi lookup, compound = COC(=O)C1C2CCC(CC1c1ccc(-c3cncc(OC)c3)cc1)N2 (stereo not drawn) , result: 5.80

The compound listed as COC(=O)C1C(c2ccc(-c3ccc(C(C)=O)cc3)cc2)CC2CCC1N2C (stereo not drawn) shows pKi equal to 6.12

pKi reading for COC(=O)C1C(c2ccc(-c3cccnc3)cc2)CC2CCC1N2C (stereo not drawn) : 5.85

Sure, the documented pKi for COC(=O)C1C(c2ccc(-c3ccc([N+](=O)[O-])cc3)cc2)CC2CCC1N2C (stereo not drawn) is 6.43

Field pKi (entry COC(=O)C1C(c2ccc(-c3cccc(O)c3)cc2)CC2CCC1N2C (stereo not drawn) ) reads 6.81

Field pKi (entry COC(=O)C1C(c2ccc(-c3ccc(OC)cc3)cc2)CC2CCC1N2C (stereo not drawn) ) reads 6.45

---

Molecular target: serotonin transporter (SERT) (Rattus norvegicus, UniProt P31652)
Construct: For SERT and NET assays, rat cerebral cortex was homogenized in cold SERT assay buffer; from tissue; host or cells: rat cerebral cortex
Sequence (P31652 whole entry): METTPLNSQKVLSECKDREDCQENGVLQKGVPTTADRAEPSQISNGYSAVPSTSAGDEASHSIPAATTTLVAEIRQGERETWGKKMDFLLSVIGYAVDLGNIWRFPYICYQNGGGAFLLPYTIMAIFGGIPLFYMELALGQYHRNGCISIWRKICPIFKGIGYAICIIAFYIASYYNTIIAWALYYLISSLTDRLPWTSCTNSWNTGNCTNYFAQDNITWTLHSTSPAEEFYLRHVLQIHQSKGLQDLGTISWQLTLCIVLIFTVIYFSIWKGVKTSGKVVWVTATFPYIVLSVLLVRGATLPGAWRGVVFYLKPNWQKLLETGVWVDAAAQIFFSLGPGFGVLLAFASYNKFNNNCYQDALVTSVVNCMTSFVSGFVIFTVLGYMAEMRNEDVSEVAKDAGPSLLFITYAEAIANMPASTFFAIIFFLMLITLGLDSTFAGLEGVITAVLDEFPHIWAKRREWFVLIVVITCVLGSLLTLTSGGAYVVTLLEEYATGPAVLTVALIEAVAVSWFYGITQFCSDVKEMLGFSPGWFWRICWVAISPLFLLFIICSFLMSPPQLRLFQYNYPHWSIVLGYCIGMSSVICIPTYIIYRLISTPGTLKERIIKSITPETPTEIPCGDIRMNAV
Experiment: Radioligand binding to serotonin transporter, [3H]paroxetine, rat cerebral cortex homogenate
Details: ratio of Ki for NET or DAT to that for SERT (values match DAT/SERT); larger number is more selective for SERT
RESULT TYPE: Selectivity for SERT
Lab note: write the figure by itself, no unit.

Result for COC(=O)C1C(c2ccc(-c3ccccc3[N+](=O)[O-])cc2)CC2CCC1N2C (stereo not shown) , tested on serotonin transporter (SERT) (Rattus norvegicus, UniProt P31652), Selectivity for SERT: 1

Noted Selectivity for SERT for COC(=O)C1C(c2ccc(-c3cccnc3)cc2)CC2CCC1N2C (stereo not shown) , tested on serotonin transporter (SERT) (Rattus norvegicus, UniProt P31652): 7.3

Selectivity for SERT for serotonin transporter (SERT) (Rattus norvegicus, UniProt P31652) with input COC(=O)C1C2CCC(CC1c1ccc(-c3cncc(OC)c3)cc1)N2 (stereo not shown) equals 150

# Selectivity for SERT measured on serotonin transporter (SERT) (Rattus norvegicus, UniProt P31652) for item COC(=O)C1C(c2ccc(-c3cccc([N+](=O)[O-])c3)cc2)CC2CCC1N2C (stereo not shown) = 11.9

Selectivity for SERT of COC(=O)[C@H]1[C@@H](c2ccc(-c3cccs3)cc2)C[C@@H]2CC[C@H]1N2C , assay on serotonin transporter (SERT) (Rattus norvegicus, UniProt P31652), is 346
